test system: Huh-7; test: Antiproliferative activity against human Huh-7 cells assessed as inhibition of cell proliferation incubated for 72 hrs by MTT assay; type: functional, cell-based; settings: Huh-7, 72 h
observable: pIC50
Note on units: pIC50 is unitless, being -log10 of a concentration expressed in mol/L.

Below, each entry is followed by its recorded pIC50 result.
1) O=C1c2cc(F)cc(F)c2N(c2cccc(F)c2)C2c3[nH]c4ccc(O)cc4c3CCN12 (stereo not drawn); 7.30
2) CN(C)CCC(=O)Oc1ccc2[nH]c3c(c2c1)CCN1C(=O)c2cc(F)cc(F)c2N(c2cccc(F)c2)C31 (stereo not drawn); 7.40

pIC50 for CN(C)CCOc1ccc2[nH]c3c(c2c1)CCN1C(=O)c2cc(F)cc(F)c2N(c2cccc(F)c2)C31 (stereo not drawn) is 6.37

pIC50 measured on CN(C)CC(=O)Oc1ccc2[nH]c3c(c2c1)CCN1C(=O)c2cc(F)cc(F)c2N(c2cccc(F)c2)C31 (stereo not drawn) = 7.40

====

system: Huh-7; test: Antiproliferative activity against human Huh-7 cells assessed as inhibition of cell proliferation incubated for 72 hrs by MTT assay; type: functional, cell-based; conditions: Huh-7, 72 h
observable: pIC50
Would you please state pIC50, meaning minus log10 of the concentration in mol/L, as a bare number?

1. O=C(O)CCC(=O)Oc1ccc2[nH]c3c(c2c1)CCN1C(=O)c2cc(F)cc(F)c2N(c2cccc(F)c2)C31 (stereo not given); 7.70

Next compound, pIC50 to be filled in.
O=C1c2cc(F)cc(F)c2N(c2cccc(F)c2)C2c3[nH]c4ccc(OCCO)cc4c3CCN12 (stereo not given) yielded pIC50 of 6.92

====

Each item that follows carries a reported IC50.
test system: Huh-7; assay: Antiproliferative activity against human Huh-7 cells assessed as inhibition of cell proliferation incubated for 72 hrs by MTT assay; type: functional, cell-based; details: Huh-7, 72 h
Kindly provide the numeric value in nM only, without the unit symbol.

1) CC(C)(O)COc1ccc2[nH]c3c(c2c1)CCN1C(=O)c2cc(F)cc(F)c2N(c2cccc(F)c2)C31 (stereo not drawn); 530
2) O=C(CCN1CCCC1)Oc1ccc2[nH]c3c(c2c1)CCN1C(=O)c2cc(F)cc(F)c2N(c2cccc(F)c2)C31 (stereo not drawn); 40
3) COCCOc1ccc2[nH]c3c(c2c1)CCN1C(=O)c2cc(F)cc(F)c2N(c2cccc(F)c2)C31 (stereo not drawn); 1530

Here is another compound to look at.
Lab book: IC50 of O=C(CO)Oc1ccc2[nH]c3c(c2c1)CCN1C(=O)c2cc(F)cc(F)c2N(c2cccc(F)c2)C31 (stereo not drawn) noted as 70

====

Catalogue of IC50 readings, one per entry.
system: Huh-7; assay: Antiproliferative activity against human Huh-7 cells assessed as inhibition of cell proliferation incubated for 72 hrs by MTT assay; format: functional, cell-based; conditions: Huh-7, 72 h
Kindly provide the numeric value in nM only, without the unit symbol.

Below: 4 compounds and their reported IC50.
1) COCC(=O)Oc1ccc2[nH]c3c(c2c1)CCN1C(=O)c2cc(F)cc(F)c2N(c2cccc(F)c2)C31 (stereo not drawn); 40
2) CC[C@@]1(O)C(=O)OCc2c1cc1n(c2=O)Cc2cc3c(CN(C)C)c(O)ccc3nc2-1; 3750
3) C[N+](C)(C)CCC(=O)Oc1ccc2[nH]c3c(c2c1)CCN1C(=O)c2cc(F)cc(F)c2N(c2cccc(F)c2)C31.[I-] (stereo not drawn); 40
4) CC(O)COc1ccc2[nH]c3c(c2c1)CCN1C(=O)c2cc(F)cc(F)c2N(c2cccc(F)c2)C31 (stereo not drawn); 190

Switching to the query record.
In plain terms, CC(=O)Oc1ccc2[nH]c3c(c2c1)CCN1C(=O)c2cc(F)cc(F)c2N(c2cccc(F)c2)C31 (stereo not drawn) has a documented IC50 of 40

====

test: Chemical stability of compound at pH 7.4 assessed as residual rate measured after 2 days; assay type: physicochemical; settings: buffer, time 2 day, read-out: Stability
observable: remaining at 48 h (%)
Give your result in % as a bare value.

Input C[N+](C)(C)CCC(=O)Oc1ccc2[nH]c3c(c2c1)CCN1C(=O)c2cc(F)cc(F)c2N(c2cccc(F)c2)C31.[I-] (stereo unspecified) . Output remaining at 48 h: 43.9

====

As shown below, each of these compounds has a reported pIC50 value.
experiment: Antiproliferative activity against human Doxorubicin-resistant SMMC-7721 cell assessed as inhibition of cell proliferation incubated for 72 hrs by MTT assay; type: functional, cell-based; details: SMMC-7721, 72 h
Recall that pIC50 is obtained by taking minus log10 of the concentration measured in molar.

Sample answers from the record:
1) COc1cccc2c1C(=O)c1c(O)c3c(c(O)c1C2=O)C[C@@](O)(C(=O)CO)C[C@@H]3O[C@H]1C[C@H](N)[C@H](O)[C@H](C)O1; 5.87
2) C[N+](C)(C)CCC(=O)Oc1ccc2[nH]c3c(c2c1)CCN1C(=O)c2cc(F)cc(F)c2N(c2cccc(F)c2)C31.[I-] (stereo not drawn); 6.96

Now examine the next entry.
For `CNC(=O)c1cc(Oc2ccc(NC(=O)Nc3ccc(Cl)c(C(F)(F)F)c3)cc2)ccn1` the compound record lists pIC50 as 5.29

====

assay: Tmax in Sprague-Dawley rat at 10 mg/kg, ip measured upto 24 hrs by LC-MS/MS analysis; type: ADME, organism-based; conditions: in vivo
observable: Tmax (h)
The reply should contain only the number, in h.

Measured Tmax, C[N+](C)(C)CCC(=O)Oc1ccc2[nH]c3c(c2c1)CCN1C(=O)c2cc(F)cc(F)c2N(c2cccc(F)c2)C31.[I-] (stereo unspecified) : 1.67

====

assay: Cmax in Sprague-Dawley rat at 10 mg/kg, ip measured upto 24 hrs by LC-MS/MS analysis; type: ADME, organism-based; conditions: in vivo
observable: Cmax (ng/mL)
// note: answer is a bare numeric in ng/mL

Recorded result, C[N+](C)(C)CCC(=O)Oc1ccc2[nH]c3c(c2c1)CCN1C(=O)c2cc(F)cc(F)c2N(c2cccc(F)c2)C31.[I-] (stereo unspecified) , Cmax: 240

====

assay: Aqueous solubility of the compound […] measured after 72 hrs in shaking by HPLC analysis; type: physicochemical
Assign 1 (yes) to entries whose solubility thermodynamic at 72 h meets or exceeds 10 µg/mL; assign 0 (no) to the rest.

Solved entries (count: 5):
1. O=C1c2cc(F)cc(F)c2N(c2cccc(F)c2)C2c3[nH]c4ccc(OCCCN5CCOCC5)cc4c3CCN12 (stereo unspecified); 1 (yes)
2. O=C(Oc1ccc2[nH]c3c(c2c1)CCN1C(=O)c2cc(F)cc(F)c2N(c2cccc(F)c2)C31)N1CCC(N2CCCCC2)CC1 (stereo unspecified); 1 (yes)
3. COP(=O)(OC)Oc1ccc2[nH]c3c(c2c1)CCN1C(=O)c2cc(F)cc(F)c2N(c2cccc(F)c2)C31 (stereo unspecified); 0 (no)
4. CN(C)C(=O)Oc1ccc2[nH]c3c(c2c1)CCN1C(=O)c2cc(F)cc(F)c2N(c2cccc(F)c2)C31 (stereo unspecified); 0 (no)
5. O=C1c2cc(F)cc(F)c2N(c2cccc(F)c2)C2c3[nH]c4ccc(OCCN5CCOCC5)cc4c3CCN12 (stereo unspecified); 0 (no)

Input: Kindly determine if solubility thermodynamic at 72 h recorded for COCCOc1ccc2[nH]c3c(c2c1)CCN1C(=O)c2cc(F)cc(F)c2N(c2cccc(F)c2)C31 (stereo unspecified) is above or exactly 10 µg/mL.
Output: 0 (no)

Input: Quick check, solubility thermodynamic at 72 h >= 10 µg/mL? CN1CCN(CCOc2ccc3[nH]c4c(c3c2)CCN2C(=O)c3cc(F)cc(F)c3N(c3cccc(F)c3)C42)CC1 (stereo unspecified)
Output: 1 (yes)

Input: Has O=C1c2cc(F)cc(F)c2N(c2cccc(F)c2)C2c3[nH]c4ccc(OCCCN5CCCC5)cc4c3CCN12 (stereo unspecified) a recorded solubility thermodynamic at 72 h greater than or equal to 10 µg/mL?
Output: 1 (yes)

Input: hey, is solubility thermodynamic at 72 h for this one >= 10 µg/mL? CN(C)CCC(=O)Oc1ccc2[nH]c3c(c2c1)CCN1C(=O)c2cc(F)cc(F)c2N(c2cccc(F)c2)C31 (stereo unspecified)
Output: 1 (yes)

Input: Record O=C1c2cc(F)cc(F)c2N(c2cccc(F)c2)C2c3[nH]c4ccc(OCCCN5CCCCC5)cc4c3CCN12 (stereo unspecified) ; criterion: solubility thermodynamic at 72 h no lower than 10 µg/mL. Met?
Output: 1 (yes)

Input: API: above_or_equal(metric=solubility thermodynamic at 72 h, cutoff=10 µg/mL) for item CC(O)COc1ccc2[nH]c3c(c2c1)CCN1C(=O)c2cc(F)cc(F)c2N(c2cccc(F)c2)C31 (stereo unspecified)
Output: 1 (yes)
